Test system: A549-mRuby cells
METHOD DESCRIPTION: Drug screening: effect on cell growth (cell number day 4 / day 0)
CONDITION PARAMETERS: 10 μM drug, repeat #1
RECORDED METRIC: toxic_1

Qu. Bench note: what toxic_1 did CC(C)c1nc(CN(C)C(=O)N[C@@H](CCN2CCOCC2)C(=O)N[C@H](CC[C@H](Cc2ccccc2)NC(=O)OCc2cncs2)Cc2ccccc2)cs1 [Cobicistat (GS-9350), Cobicistat] show?
Ans. 0

Qu. Next record, please: `CCCCCCCC(=O)N[C@H](CN1CCCC1)[C@H](O)c1ccc2c(c1)OCCO2`
Ans. 0

Qu. Next record, please: `C#C[C@]1(O)CC[C@H]2[C@@H]3CCC4=CC(=O)CC[C@@H]4[C@H]3C(=C)C[C@@]21CC`
Ans. 0

###

Tested on: OC43
METHOD DESCRIPTION: Drug screening: OC43 nucleoprotein staining in infected A549-mRuby cells
Type: cell-based, human beta coronavirus OC43
CONDITION PARAMETERS: Betacoronavirus 1, OC43, 96 h, 10 μM drug, MOI 0.3, 4 days; normalized to no-drug controls in the same plate; repeat #2; read-out: OC43_2: % staining of OC43 in screen repeat #2
Structures can show the parent of a compound that is named as a salt.
Would you mind telling me the reported activity at 10 µM of each entry?
// units = %; emit number, no label

Qu. So what activity at 10 µM did CCN(CCCCOC(=O)c1ccc(OC)c(OC)c1)C(C)Cc1ccc(OC)cc1.O (stereo not drawn) [Mebeverine Hydrochloride] get with OC43?
Ans. 19.9

Qu. Next record, please: COc1ccc(NC(=O)c2ccc(C(=N)N(C)C)cc2)c(C(=O)Nc2ccc(Cl)cn2)c1 [Betrixaban maleate]
Ans. 21.8

Qu. Next record, please: CNCCCC12CCC(c3ccccc31)c1ccccc12 [Maprotiline HCl]
Ans. 25.1

Qu. Next record, please: CNCCC=C1c2ccccc2CCc2ccccc21.O [Nortriptyline hydrochloride]
Ans. 14

Qu. Next record, please: OCCN1CCN(CCCN2c3ccccc3Sc3ccc(Cl)cc32)CC1 [Perphenazine]
Ans. 25.8

Qu. Next record, please: COc1cc2ncnc(Nc3ccc(F)c(Cl)c3)c2cc1OCCCN1CCOCC1 [Gefitinib hydrochloride]
Ans. 27.8

Qu. Next record, please: CN(C)CCC=C1c2ccccc2CCc2ccccc21 [Amitriptyline HCl]
Ans. 34.3

Qu. Next record, please: O=C(Nc1ccccc1)OCC(CN1CCCCC1)OC(=O)Nc1ccccc1 (stereo not drawn) [Diperodon HCl]
Ans. 61.6

Qu. Next record, please: CN1CCCC(n2nc(Cc3ccc(Cl)cc3)c3ccccc3c2=O)CC1.O (stereo not drawn) [Azelastine HCl]
Ans. 18.5

Qu. Next record, please: COc1ccccc1OCCNCC(O)COc1cccc2[nH]c3ccccc3c12 (stereo not drawn) [Carvedilol]
Ans. 29.1

Qu. Next record, please: CN(C)CCCN1c2ccccc2CCc2ccccc21.O [Imipramine HCl]
Ans. 22.3

Qu. Next record, please: CCOC(=O)N[C@@H]1CC[C@@H]2[C@@H](C1)C[C@H]1C(=O)O[C@H](C)[C@H]1[C@H]2/C=C/c1ccc(-c2cccc(F)c2)cn1 [Vorapaxar]
Ans. 48.3

Qu. Next record, please: CN(C)CCCOc1nn(Cc2ccccc2)c2ccccc12 [Benzydamine HCl]
Ans. 25.6

Qu. Next record, please: C=C[C@]1(C)C[C@@H](OC(=O)CSC(C)(C)CNC(=O)[C@H](N)C(C)C)[C@]2(C)[C@H](C)CC[C@]3(CCC(=O)[C@H]32)[C@@H](C)[C@@H]1O [Valnemulin HCl]
Ans. 37.1

Qu. Next record, please: CN(C)CCCC1(c2ccc(F)cc2)OCc2cc(C#N)ccc21 (stereo not drawn) [Citalopram HBr]
Ans. 44.4

Qu. Next record, please: CCCCOc1cc(C(=O)NCCN(CC)CC)c2ccccc2n1 [Cinchocaine]
Ans. 64.3

Qu. Next record, please: CN(C)CCCN1c2ccccc2CCc2ccc(Cl)cc21.O [Clomipramine HCl]
Ans. 21.6

Qu. Next record, please: CCN(CC)CCOCCOC(=O)C1(c2ccccc2)CCCC1.O=C(O)CC(O)(CC(=O)O)C(=O)O [Pentoxyverine Citrate]
Ans. 7.7

Qu. Next record, please: CN(C)CCC=C1c2ccccc2C=Cc2ccccc21 [Cyclobenzaprine HCl]
Ans. 47.7

Qu. Next record, please: C#C[C@]1(O)CC[C@H]2[C@@H]3CCC4=CC(=O)CC[C@@H]4[C@H]3C(=C)C[C@@]21CC [Etonogestrel]
Ans. 40.7

Qu. Next record, please: CCCCCCCC(=O)N[C@H](CN1CCCC1)[C@H](O)c1ccc2c(c1)OCCO2 [Eliglustat]
Ans. 20.4

Qu. Next record, please: CC(C)c1nc(CN(C)C(=O)N[C@@H](CCN2CCOCC2)C(=O)N[C@H](CC[C@H](Cc2ccccc2)NC(=O)OCc2cncs2)Cc2ccccc2)cs1 [Cobicistat (GS-9350), Cobicistat]
Ans. 20.7

Qu. Next record, please: CN1CCC(=C2c3ccccc3C=Cc3ccccc32)CC1 [Cyproheptadine HCl]
Ans. 31.2

Qu. Next record, please: CO[C@H]1/C=C/O[C@@]2(C)Oc3c(C)c(O)c4c(c3C2=O)C2=NC3(CCN(CC(C)C)CC3)NC2=C(NC(=O)/C(C)=C\C=C\[C@H](C)[C@H](O)[C@@H](C)[C@@H](O)[C@@H](C)[C@H](OC(C)=O)[C@@H]1C)C4=O [Rifabutin]
Ans. 56.4

Qu. Next record, please: CN1CCC(OC(c2ccccc2)c2ccccc2)CC1 [Diphenylpyraline HCl]
Ans. 51.6

Qu. Next record, please: COCCCC/C(=N\OCCN)c1ccc(C(F)(F)F)cc1 [Fluvoxamine maleate]
Ans. 38.9

Qu. Next record, please: COc1cc2nc(N3CCN(C(=O)C4COc5ccccc5O4)CC3)nc(N)c2cc1OC (stereo not drawn) [Doxazosin Mesylate]
Ans. 9.2

Qu. Next record, please: CC(C)(O)CNc1nc(Nc2ccnc(C(F)(F)F)c2)nc(-c2cccc(C(F)(F)F)n2)n1 [Enasidenib (AG-221), Enasidenib]
Ans. 29

Qu. Next record, please: O.O=C(c1ccc(OCCN2CCCCC2)cc1)c1c(-c2ccc(O)cc2)sc2cc(O)ccc12 [Raloxifene HCl]
Ans. 14

Qu. Next record, please: CC[C@H]1OC(=O)[C@H](C)[C@@H](O[C@H]2C[C@@](C)(OC)[C@@H](O)[C@H](C)O2)[C@H](C)[C@@H](O[C@@H]2O[C@H](C)C[C@H](N(C)C)[C@H]2O)[C@](C)(O)C[C@@H](C)CN(C)[C@H](C)[C@@H](O)[C@]1(C)O [Azithromycin Dihydrate]
Ans. 15.9

###

Test system: OC43
METHOD DESCRIPTION: Drug screening: OC43 nucleoprotein staining in infected A549-mRuby cells
Format: cell-based, human beta coronavirus OC43
CONDITION PARAMETERS: 10 μM drug, MOI 0.3, 4 days; OC43 staining normalized to no-drug controls; mean of the two screen repeats
Would you mind telling me the reported OC43_mean of each entry?
// units = %; emit number, no label

Qu. Bench note: what OC43_mean did `COc1ccc(NC(=O)c2ccc(C(=N)N(C)C)cc2)c(C(=O)Nc2ccc(Cl)cn2)c1` show?
Ans. 32.0

Qu. Next record, please: `C[C@@H]1[C@H](O)[C@@H](C)/C=C/C=C/C=C/C=C/C=C/C=C/C=C/[C@H](O[C@@H]2O[C@H](C)[C@@H](O)[C@H](N)[C@@H]2O)C[C@@H]2O[C@](O)(C[C@@H](O)C[C@@H](O)[C@H](O)CC[C@@H](O)C[C@@H](O)CC(=O)O[C@H]1C)C[C@H](O)[C@H]2C(=O)O`
Ans. 6.6

Qu. Next record, please: C[C@@H]1CCN(C(=O)CC#N)C[C@@H]1N(C)c1ncnc2[nH]ccc12.O=C(O)CC(O)(CC(=O)O)C(=O)O [Tofacitinib (CP-690550) Citrate]
Ans. 58.5

###

System: A549-mRuby cells
METHOD DESCRIPTION: Drug screening: effect on cell growth (cell number day 4 / day 0)
CONDITION PARAMETERS: 10 μM drug, repeat #2
Procedure: A549-mRuby cells were seeded (3,000 cells per well) in nine 384-well plates using Multidrop combi. Cells were seeded in a final volume of 30 μl with DMEM+10% BCS. The following day, 20 μl of OC43 were added (MOI 0.3) and incubated at 33° C., 5% CO2 for 1 hour. 50 nl from the Selleck FDA-approved drug library (cat #L1300, Selleck) were added (1:1,000 dilution). Two columns (32 wells) were left uninfected and two columns were treated with DMSO and virus (no drug control). […]
Where a name gives a salt, the structure may show the parent alone.
Would you mind telling me the reported Growth_2: number of cells at day 4 divided by number of cells at day 0 of each entry?

Qu. Bench note: what Growth_2: number of cells at day 4 divided by number of cells at day 0 did Cc1ccc(O)c([C@H](CCN(C(C)C)C(C)C)c2ccccc2)c1.O=C(O)C(O)C(O)C(=O)O [Tolterodine tartrate] show?
Ans. 5.1

Qu. Next record, please: N#Cc1ccc2[nH]cc(CCCCN3CCN(c4ccc5oc(C(N)=O)cc5c4)CC3)c2c1.O [Vilazodone HCl]
Ans. 3.9

Qu. Next record, please: CCCCc1oc2ccccc2c1C(=O)c1cc(I)c(OCCN(CC)CC)c(I)c1 [Amiodarone HCl]
Ans. 5.4

Qu. Next record, please: CN(C)N(C)C(=O)[C@@]1(Cc2ccccc2)CCCN(C(=O)[C@@H](Cc2c[nH]c3ccccc23)NC(=O)C(C)(C)N)C1 [Anamorelin]
Ans. 5.5

Qu. Next record, please: CN1CCN(C2=Nc3cc(Cl)ccc3Nc3ccccc32)CC1 [Clozapine]
Ans. 4.3

Qu. Next record, please: CN(C)CCCN1c2ccccc2CCc2ccc(Cl)cc21.O [Clomipramine HCl]
Ans. 3.8

Qu. Next record, please: CN(C)CCC=C1c2ccccc2CCc2ccccc21 [Amitriptyline HCl]
Ans. 4.1

Qu. Next record, please: COc1ccc(NC(=O)c2ccc(C(=N)N(C)C)cc2)c(C(=O)Nc2ccc(Cl)cn2)c1 [Betrixaban maleate]
Ans. 5.7

Qu. Next record, please: CN(C)CCC=C1c2ccccc2C=Cc2ccccc21 [Cyclobenzaprine HCl]
Ans. 2.1

Qu. Next record, please: COc1ccc(CN2CCN(C(c3ccc(F)cc3)c3ccc(F)cc3)CC2)c(OC)c1OC.Cl.Cl [Lomerizine 2HCl]
Ans. 5.3

Each recorded value in this set is attributed to patent US20230285405A1.
